System: Staphylococcus aureus
EXPERIMENT DESCRIPTION: Antibacterial activity against carbapenem and methicillin-resistant Staphylococcus aureus M126HR by agar dilution method
Format: functional
METRIC: MIC (µg/mL)
Give a bare numeral; the unit µg/mL is implied.

Worked cases, MIC given:
- COMPOUND: "C[C@@H](O)[C@H]1C(=O)N2C(C(=O)[O-])=C(c3cn4cnc(C(=O)c5ccc[n+](CC(=O)C(F)(F)F)c5)c4s3)[C@H](C)[C@H]12"
  METRIC: "MIC"
  NUMERIC READOUT: 4
- COMPOUND: "C[C@@H](O)[C@H]1C(=O)N2C(C(=O)O)=C(c3cn4cnc(C(=O)c5cccnc5)c4s3)[C@H](C)[C@H]12"
  METRIC: "MIC"
  NUMERIC READOUT: 4
- COMPOUND: "CSc1nc(C(=O)c2ccc[n+](CC(N)=O)c2)c2sc(C3=C(C(=O)[O-])N4C(=O)[C@H]([C@@H](C)O)[C@H]4[C@H]3C)cn12"
  METRIC: "MIC"
  NUMERIC READOUT: 1
- COMPOUND: "C[C@@H](O)[C@H]1C(=O)N2C(C(=O)[O-])=C(c3cn4cnc(C(=O)c5ccc[n+](Cc6ccccc6)c5)c4s3)[C@H](C)[C@H]12"
  METRIC: "MIC"
  NUMERIC READOUT: 4
- COMPOUND: "Cc1nc(C(=O)c2ccc[n+](CC(N)=O)c2)c2sc(C3=C(C(=O)[O-])N4C(=O)[C@H]([C@@H](C)O)[C@H]4[C@H]3C)cn12"
  METRIC: "MIC"
  NUMERIC READOUT: 4

Using the record for CC(=O)C[n+]1cccc(C(=O)c2ncn3cc(C4=C(C(=O)[O-])N5C(=O)[C@H]([C@@H](C)O)[C@H]5[C@H]4C)sc23)c1 , report its MIC.
4

Queued: C[C@@H](O)[C@H]1C(=O)N2C(C(=O)O)=C(c3cn4cnc(C(=O)c5cnc6ccccc6c5)c4s3)[C@H](C)[C@H]12
2

Input CSc1c2sc(C3=C(C(=O)[O-])N4C(=O)[C@H]([C@@H](C)O)[C@H]4[C@H]3C)cn2c[n+]1CC(N)=O
4

// same read-out, input: C[C@@H](O)[C@H]1C(=O)N2C(C(=O)[O-])=C(c3cn4cnc(C(=O)c5ccc[n+](CC(=O)O)c5)c4s3)[C@H](C)[C@H]12
8

All figures here come from ChEMBL document CHEMBL1144513.
